Biological target: T1, LILRB5-His (Acro, CDC-H5220) (human, UniProt O75023 24-458, limits assumed)
T1 construct: Bought protein. 'Human' stands at the head of the list of coated proteins; not shown: His tag
T1 sequence (O75023 24-458 limits assumed): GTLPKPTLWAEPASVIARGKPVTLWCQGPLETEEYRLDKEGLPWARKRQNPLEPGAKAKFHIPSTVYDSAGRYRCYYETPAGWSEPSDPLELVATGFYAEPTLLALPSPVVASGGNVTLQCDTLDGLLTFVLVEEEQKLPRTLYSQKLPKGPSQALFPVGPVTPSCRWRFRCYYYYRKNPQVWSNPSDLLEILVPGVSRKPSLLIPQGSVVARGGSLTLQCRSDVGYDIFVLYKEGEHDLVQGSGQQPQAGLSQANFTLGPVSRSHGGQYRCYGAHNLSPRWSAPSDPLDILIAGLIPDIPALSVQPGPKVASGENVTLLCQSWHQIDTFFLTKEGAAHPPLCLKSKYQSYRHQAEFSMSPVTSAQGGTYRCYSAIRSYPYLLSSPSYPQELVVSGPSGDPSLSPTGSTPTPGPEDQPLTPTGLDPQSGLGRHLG
Test: ELISA, coated protein 1 µg/mL, antibody 10 µg/mL
For each record, write down the corresponding absorbance at 450 nm.

// query I'd like to know its absorbance at 450 nm. The binder in question is humanized antibody huP2-C6 (antibody, human IgG1, kappa, L234A L235A, V domains shown, Full chains; also called P2-C6H7L1) VH: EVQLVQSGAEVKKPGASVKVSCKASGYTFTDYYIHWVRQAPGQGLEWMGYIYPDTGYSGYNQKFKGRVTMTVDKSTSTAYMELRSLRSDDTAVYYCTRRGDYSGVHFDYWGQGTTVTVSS VL: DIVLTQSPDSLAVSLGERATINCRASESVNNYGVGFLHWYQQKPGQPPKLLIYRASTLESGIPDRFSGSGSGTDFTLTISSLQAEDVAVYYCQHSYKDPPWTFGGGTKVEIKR
// result 0.0563 absorbance at 450 nm

// query Similarly, humanized antibody huP2-E8 (antibody, human IgG4 S228P, kappa, F234A L235A, V domains shown, Full chains; also called P2-E8H4L1) VH: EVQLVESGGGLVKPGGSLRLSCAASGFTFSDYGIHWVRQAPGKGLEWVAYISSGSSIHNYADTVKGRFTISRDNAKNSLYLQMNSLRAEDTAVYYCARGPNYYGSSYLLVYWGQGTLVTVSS VL: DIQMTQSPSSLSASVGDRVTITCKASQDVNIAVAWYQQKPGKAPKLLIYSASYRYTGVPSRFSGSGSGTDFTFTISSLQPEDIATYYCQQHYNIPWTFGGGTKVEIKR ?
// result 0.0489 absorbance at 450 nm

// query Please give the result for humanized antibody huP2-E3 (antibody, human IgG4 S228P, kappa, F234A L235A, V domains shown, Full chains; The constant region is hIgG1(LALA) or hIgG4(LALA) with a kappa CL; also called P2-E3H6L2) VH: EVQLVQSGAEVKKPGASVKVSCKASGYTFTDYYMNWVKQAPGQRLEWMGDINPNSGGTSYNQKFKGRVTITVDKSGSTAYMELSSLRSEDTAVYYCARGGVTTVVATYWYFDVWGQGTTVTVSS VL: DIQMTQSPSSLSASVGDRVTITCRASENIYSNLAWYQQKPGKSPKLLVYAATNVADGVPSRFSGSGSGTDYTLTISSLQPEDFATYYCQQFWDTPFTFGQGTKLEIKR too.
// result 0.0523 absorbance at 450 nm

// query Check humanized antibody huP2-G9 (antibody, human IgG1, kappa, L234A L235A, V domains shown, Full chains; also called P2-G9H1L2) VH: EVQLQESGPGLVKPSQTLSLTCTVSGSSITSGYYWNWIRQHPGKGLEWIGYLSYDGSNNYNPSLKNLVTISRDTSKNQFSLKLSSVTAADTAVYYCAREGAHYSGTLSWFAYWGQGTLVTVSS VL: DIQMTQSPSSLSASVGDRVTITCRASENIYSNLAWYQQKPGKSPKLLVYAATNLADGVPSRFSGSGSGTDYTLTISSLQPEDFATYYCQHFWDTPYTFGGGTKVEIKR too.
// result 0.0533 absorbance at 450 nm

// query Also fully human-derived antibody P2m (antibody, human IgG1, kappa, L234A L235A, V domains shown, Full chains) VH: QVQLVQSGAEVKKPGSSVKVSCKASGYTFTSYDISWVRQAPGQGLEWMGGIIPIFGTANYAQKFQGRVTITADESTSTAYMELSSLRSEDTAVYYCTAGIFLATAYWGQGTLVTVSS VL: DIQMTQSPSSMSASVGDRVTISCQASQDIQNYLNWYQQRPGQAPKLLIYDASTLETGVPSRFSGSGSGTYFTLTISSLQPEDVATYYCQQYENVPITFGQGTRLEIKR , if possible.
// result 0.0663 absorbance at 450 nm
